Ref: ChEMBL document CHEMBL3808337

Method: Drug metabolism in human liver microsomes at 10 uM after 30 mins by LCMS analysis
Assay type: ADME
Test Context: read-out: Drug metabolism
Property: metabolised at 0.5 h, 10 µM (%)
Number only, in %; omit the unit.

metabolised at 0.5 h, 10 µM recorded for this molecule, COc1cc(-c2cnn(C)c2)ccc1Nc1ncc2ccnc(N[C@@H](C)C(C)(C)C)c2n1 , is 70

----------
Target Desc: Serine/threonine-protein kinase PLK1 (Homo sapiens, UniProt P53350)
Sequence (P53350 whole entry): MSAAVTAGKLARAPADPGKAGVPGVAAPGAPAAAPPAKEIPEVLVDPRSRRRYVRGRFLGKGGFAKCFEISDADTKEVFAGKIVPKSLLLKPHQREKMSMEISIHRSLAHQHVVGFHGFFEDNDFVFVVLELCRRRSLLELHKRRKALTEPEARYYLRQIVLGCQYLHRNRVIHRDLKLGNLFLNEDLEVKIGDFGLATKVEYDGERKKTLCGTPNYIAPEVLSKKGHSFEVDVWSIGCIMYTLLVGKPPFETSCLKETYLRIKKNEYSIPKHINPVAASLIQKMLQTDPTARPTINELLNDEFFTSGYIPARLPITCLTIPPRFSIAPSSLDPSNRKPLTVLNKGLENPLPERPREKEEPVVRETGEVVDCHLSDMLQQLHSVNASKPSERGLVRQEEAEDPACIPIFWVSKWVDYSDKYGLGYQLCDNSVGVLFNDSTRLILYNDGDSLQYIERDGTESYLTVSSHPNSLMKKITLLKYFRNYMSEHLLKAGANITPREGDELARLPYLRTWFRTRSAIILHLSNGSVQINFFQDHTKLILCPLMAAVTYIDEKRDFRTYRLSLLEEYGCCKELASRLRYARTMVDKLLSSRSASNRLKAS
Method: Inhibition of human full length recombinant His-tagged PLK1 expressed in baculovirus by Z'-LYTE assay
Property: IC50

Observed IC50 on Serine/threonine-protein kinase PLK1 (Homo sapiens, UniProt P53350), entry COc1cc(-c2cnn(C)c2)ccc1Nc1ncc2ccnc(N[C@@H](C)C(C)(C)C)c2n1 , equals > 100 µM
